test system: CCRF-CEM; test: NCI tumour cell line growth inhibition, 48 h
Active and inactive are the calls of the source. Cut-off read from the data, not from the text of the source: active = GI50 up to about 1.1 µM and inactive = higher.
Result category, one only: active, inactive

Each molecule tested received a call. Report the one for "CN(C)/C=N/c1ccc2[nH]c3ccccc3c2c1" .
inactive

Each molecule tested received a call. Report the one for "CC#CC(=O)Nc1ccccc1CC(c1c[nH]c2ccccc12)c1c[nH]c2ccccc12" .
inactive

Each molecule tested received a call. Report the one for "CC(C)(C)c1nc2c(o1)C(=O)c1ccccc1C2=O" .
inactive

Each molecule tested received a call. Report the one for "Nc1ccc(-c2nc3ccccc3s2)cc1Cl" .
inactive

Each molecule tested received a call. Report the one for "CN(C)CCNc1ccc2ncnc3c2c1C(=O)c1ccccc1-3" .
active

Each molecule tested received a call. Report the one for "COc1cc(/C=C(\C)[N+](=O)[O-])cc(OC)c1" .
inactive

Each molecule tested received a call. Report the one for "O=c1[nH]c2c(nc1NC13CC4CC(CC(C4)C1)C3)c(=O)oc1ccccc12" .
inactive

Each molecule tested received a call. Report the one for "O=C(O)c1ccccc1SCc1cccc2c(=O)c3ccc(Cl)cc3oc12" .
inactive

Each molecule tested received a call. Report the one for "CN(CCc1ccccn1)c1ccc2c(c1)Cc1ccccc1-2" .
inactive

Each molecule tested received a call. Report the one for "O=C(O)C[n+]1cn(NC(=O)Cc2ccccc2)cn1" .
inactive

Each molecule tested received a call. Report the one for "N#C[C@@H](c1nc2ccccc2s1)c1ncccc1[N+](=O)[O-]" .
inactive

Each molecule tested received a call. Report the one for "O=S(O)CCCCSSCCCCS(=O)(=O)S" .
inactive

Each molecule tested received a call. Report the one for CC1CC=CC(O)C1 (stereo unspecified) .
inactive

Each molecule tested received a call. Report the one for "Clc1ccc(OCCSCCCCCCCCCCSCCOc2ccc(Cl)cc2)cc1" .
inactive

Each molecule tested received a call. Report the one for COC(=O)c1cc2cc3c(c(O)c2c(=O)o1)O[C@@]1(Oc2c(O)c4c(c(O)c2[C@H]1OC1CC(OC)C(O)C(C)O1)C(=O)C=C(OC)C4=O)[C@H](O)C3 (stereo partly specified) .
active

Each molecule tested received a call. Report the one for "CC(=O)c1cccc(NC(=O)C(=O)NNc2nnc(S)n2N)c1" .
inactive

Each molecule tested received a call. Report the one for CCOC(=O)N1CCC2C(=C(C)C(C)C3=C2C(=O)c2ccccc2C3=O)C1 (stereo unspecified) .
inactive

Each molecule tested received a call. Report the one for O=C1C2C(C(=O)N1c1ccccc1)C1(c3ccccc3)OC2(c2ccccc2)c2ccccc21 (stereo unspecified) .
inactive

Each molecule tested received a call. Report the one for c1ccc(C2[C@@H]3CCCc4ccccc4C3=NN2c2ccccc2)cc1 (stereo partly specified) .
inactive

Each molecule tested received a call. Report the one for COC(=O)CCC1CCc2c(OC)ccc(OC)c2C1=O (stereo unspecified) .
inactive

Each molecule tested received a call. Report the one for "Cc1[nH]n(-c2nc3c(c(=O)[nH]2)CCC3)c(=O)c1CCO" .
inactive

Each molecule tested received a call. Report the one for "CCN(CC)c1ccc(/C=C/C(=O)c2cc(C(C)(C)C)c(O)c(C(C)(C)C)c2)cc1" .
inactive

Each molecule tested received a call. Report the one for "CCc1nc(N)nc(N)c1-c1ccc(N2CCNCC2)cc1" .
inactive

Each molecule tested received a call. Report the one for COC(=O)C(=O)C(C(=O)C(=O)Nc1cccc(C(C)=O)c1)c1nc2ccccc2nc1O (stereo unspecified) .
inactive

Each molecule tested received a call. Report the one for CC(C)C(C/C=C1/CC(CO)(COC(=O)CC(C(C)C)C(C)C)OC1=O)C(C)C (stereo unspecified) .
inactive

Each molecule tested received a call. Report the one for CCCCCCC1=NOC(C(c2cc[nH]c2)N(C)[C@H](C(=O)OC)C(C)C)C1 (stereo partly specified) .
inactive

Each molecule tested received a call. Report the one for OCC(O)C(OC1OC(CO)C(O)C(O)C1O)c1nn(-c2ccc(Cl)cc2)c2nc3cc(Cl)c(Cl)cc3nc12 (stereo unspecified) .
inactive

Each molecule tested received a call. Report the one for "C/C(=N\NC(=O)c1ccccc1O)C1=CNc2ccccc2S1" .
inactive

Each molecule tested received a call. Report the one for "O=C(c1ccc(O)c([N+](=O)[O-])c1)c1ccc(O)c([N+](=O)[O-])c1" .
inactive

Each molecule tested received a call. Report the one for "Cc1cc(S(=O)(=O)[N-]/C(=N/S(=O)(=O)c2cc(Cl)sc2Cl)[n+]2ccc(N(C)C)cc2)c(S)cc1Cl" .
inactive

Each molecule tested received a call. Report the one for "C=CC/C=C/C/C=C/CCCCCCCc1cccc(O)c1C(=O)O" .
inactive
